# measurementDescription: recombinant UMI read abundance after kanamycin selection (control-corrected) (log10(CPM+1)); higher = more efficient recombination; extreme values may be limits of the assay; sequences stand for … in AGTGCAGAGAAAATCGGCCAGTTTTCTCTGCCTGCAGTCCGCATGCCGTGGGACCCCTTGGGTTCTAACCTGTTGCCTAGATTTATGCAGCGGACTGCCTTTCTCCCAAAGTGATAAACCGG…AGGTTGGTTTCACT; site = the 11-nt donor
Would you please tag the item YES when its recombinant UMI read abundance (log10) is 0.3 or above, and NO when it is below?

{"sequenceString": "AGGCGTTCATGGACCGGTTTTCCCGGTAATCCGTATTTGTG (site AGGCGTTCTCA)", "class": "YES"}
{"sequenceString": "AGCCGTCCATGGACCGGTTTTCCCGGTAATCCGTATTTGAT (site AGCCGTCCTAT)", "class": "YES"}
{"sequenceString": "GCTGTGTCATGGACCGGTTTTCCCGGTAATCCGTATTTGCG (site GCTGTGTCTCG)", "class": "YES"}
{"sequenceString": "GTTCTTCCATGGACCGGTTTTCCCGGTAATCCGTATTTGGT (site GTTGTTCCTAC)", "class": "NO"}
{"sequenceString": "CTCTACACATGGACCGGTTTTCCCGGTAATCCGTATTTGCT (site CTGTACACTAG)", "class": "NO"}
{"sequenceString": "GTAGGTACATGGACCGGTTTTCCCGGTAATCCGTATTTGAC (site GTAGGCACTGT)", "class": "YES"}
{"sequenceString": "TCGGACCCATGGACCGGTTTTCCCGGTAATCCGTATTTGAA (site TCGGACCCTTT)", "class": "NO"}
{"sequenceString": "GGGGCCCCATGGACCGGTTTTCCCGGTAATCCGTATTTGCA (site GGGGCGCCTTG)", "class": "NO"}
{"sequenceString": "AGTCCCACATGGACCGGTTTTCCCGGTAATCCGTATTTGAA (site AGTCCCACTTT)", "class": "YES"}
{"sequenceString": "GCTAGTGCATGGACCGGTTTTCCCGGTAATCCGTATTTGCC (site GCTAATGCTGG)", "class": "NO"}
{"sequenceString": "ACCATATCATGGACCGGTTTTCCCGGTAATCCGTATTTGTC (site GCCATATCTGA)", "class": "NO"}
{"sequenceString": "TAAGCCGCATGGACCGGTTTTCCCGGTAATCCGTATTTGCA (site GGGTTGCCTGA)", "class": "NO"}

----------
# measurementDescription: recombinant barcode read abundance after kanamycin selection (control-corrected) (log10(CPM+1)); higher = more efficient recombination; sequences stand for … in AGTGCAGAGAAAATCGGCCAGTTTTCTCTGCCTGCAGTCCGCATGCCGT…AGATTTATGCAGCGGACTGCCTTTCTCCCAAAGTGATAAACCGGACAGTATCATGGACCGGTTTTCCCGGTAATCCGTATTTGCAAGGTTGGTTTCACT; site = the 11-nt target
valueKind: recombinant barcode read abundance (log10)

{"sequenceString": "CGCAAATCTTGGGTTCTAACCTGTTGCCT (site CGAAAATCTAG)", "valueObserved": 0.0245}
{"sequenceString": "GAGTTGCCTTGGGTTCTAACCTGTTGCGT (site GAGTTTCCTAC)", "valueObserved": 0.0593}
{"sequenceString": "GCACAACCTTGGGTTCTAACCTGTTGCCT (site GCACTACCTAG)", "valueObserved": 0.0085}
{"sequenceString": "CCTGGGACTTGGGTTCTAACCTGTTGCGT (site CCTGGGACTAC)", "valueObserved": 1.31}

----------
# measurementDescription: recombinant UMI read abundance after kanamycin selection (control-corrected) (log10(CPM+1)); higher = more efficient recombination; extreme values may be limits of the assay; sequences stand for … in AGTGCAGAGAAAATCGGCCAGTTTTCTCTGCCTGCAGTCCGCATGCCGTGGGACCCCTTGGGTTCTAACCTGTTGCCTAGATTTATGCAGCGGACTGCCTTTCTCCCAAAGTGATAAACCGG…AGGTTGGTTTCACT; site = the 11-nt donor
# label = Yes if recombinant UMI read abundance (log10) >= 0.006 else No

{"sequenceString": "ACTAGTTCATGGACCGGTTTTCCCGGTAATCCGTATTTGGT (site ACTAGTGCTAC)", "class": "No"}
{"sequenceString": "CCCATATCATGGACCGGTTTTCCCGGTAATCCGTATTTGTT (site CCCATATCTTA)", "class": "No"}
{"sequenceString": "CAAGACACATGGACCGGTTTTCCCGGTAATCCGTATTTGGG (site CAAGCCACTCC)", "class": "No"}
{"sequenceString": "AATAATGCATGGACCGGTTTTCCCGGTAATCCGTATTTGGA (site AATAATGCTTC)", "class": "Yes"}
{"sequenceString": "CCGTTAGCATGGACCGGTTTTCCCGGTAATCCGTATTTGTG (site CCGTTAGCTTA)", "class": "No"}
{"sequenceString": "TAGAATACATGGACCGGTTTTCCCGGTAATCCGTATTTGCC (site TAGAATACTTG)", "class": "No"}
{"sequenceString": "ACAAAGACATGGACCGGTTTTCCCGGTAATCCGTATTTGCA (site ACAAAGACTTG)", "class": "Yes"}
{"sequenceString": "CGGGAACCATGGACCGGTTTTCCCGGTAATCCGTATTTGCT (site CGGGAACCTAC)", "class": "No"}
{"sequenceString": "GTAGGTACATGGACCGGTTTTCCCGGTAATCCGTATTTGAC (site GTAGGTACTGT)", "class": "Yes"}
{"sequenceString": "GGGGGACCATGGACCGGTTTTCCCGGTAATCCGTATTTGCA (site GGGGCACCTTG)", "class": "No"}
{"sequenceString": "ATGACTACATGGACCGGTTTTCCCGGTAATCCGTATTTGAC (site ACGACTACTGT)", "class": "Yes"}
{"sequenceString": "ACATCTTCATGGACCGGTTTTCCCGGTAATCCGTATTTGTG (site ACATCTACTCA)", "class": "Yes"}

----------
Catalogue of sequences with associated recombinant barcode read abundance (log10)
# measurementDescription: recombinant barcode read abundance after kanamycin selection (control-corrected) (log10(CPM+1)); higher = more efficient recombination; sequences stand for … in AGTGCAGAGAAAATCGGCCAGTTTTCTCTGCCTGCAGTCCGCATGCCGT…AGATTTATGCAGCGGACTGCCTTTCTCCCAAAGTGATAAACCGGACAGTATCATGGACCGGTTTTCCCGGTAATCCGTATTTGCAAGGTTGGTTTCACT; site = the 11-nt target
valueKind: recombinant barcode read abundance (log10)

{"sequenceString": "ACGAGTACTTGGGTTCTAACCTGTTGCTG (site ACGAGTACTCA)", "valueObserved": 1.02}
{"sequenceString": "TCGCACTCTTGGGTTCTAACCTGTTGCTA (site TCGCACACTTA)", "valueObserved": 0.262}
{"sequenceString": "GTGCGGACTTGGGTTCTAACCTGTTGCGT (site GTGCGGACTAC)", "valueObserved": 2.06}
{"sequenceString": "ACTCACCCTTGGGTTCTAACCTGTTGCGG (site ACTCACCCTCC)", "valueObserved": 2.62}
{"sequenceString": "ACAAATCCTTGGGTTCTAACCTGTTGCCT (site ACAAACCCTAG)", "valueObserved": 0.292}
{"sequenceString": "CTAGACCCTTGGGTTCTAACCTGTTGCCT (site TTAGACCCTAG)", "valueObserved": 0.0677}
{"sequenceString": "CACAGACCTTGGGTTCTAACCTGTTGCCT (site CACAGACCTAG)", "valueObserved": 1.47}
{"sequenceString": "GAACCTACTTGGGTTCTAACCTGTTGCCA (site GGACCTACTTG)", "valueObserved": 0.0691}

----------
# measurementDescription: recombinant barcode read abundance after kanamycin selection (control-corrected) (log10(CPM+1)); higher = more efficient recombination; sequences stand for … in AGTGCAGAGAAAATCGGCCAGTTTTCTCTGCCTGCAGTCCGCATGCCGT…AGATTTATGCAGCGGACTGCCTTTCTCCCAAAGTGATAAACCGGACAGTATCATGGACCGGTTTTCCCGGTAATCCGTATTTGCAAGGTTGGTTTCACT; site = the 11-nt target
Examples of sequences with documented recombinant barcode read abundance (log10) follow.
valueKind: recombinant barcode read abundance (log10)

{"sequenceString": "TCTTGGACTTGGGTTCTAACCTGTTGCTG (site TCTTGGACTGA)", "valueObserved": 0.174}
{"sequenceString": "GTTTCTTCTTGGGTTCTAACCTGTTGCCT (site GATTCTTCTAG)", "valueObserved": 0.304}
{"sequenceString": "TGGCCCTCTTGGGTTCTAACCTGTTGCTG (site TGGCCCTCTCA)", "valueObserved": 2.31}
{"sequenceString": "GCCTGTTCTTGGGTTCTAACCTGTTGCCT (site GGCTGTTCTAG)", "valueObserved": 0.0257}
{"sequenceString": "CATGTGTCTTGGGTTCTAACCTGTTGCGG (site CATGTGTCTCC)", "valueObserved": 2.69}
{"sequenceString": "GCACAACCTTGGGTTCTAACCTGTTGCCT (site GCACGACCTAG)", "valueObserved": 0.214}
{"sequenceString": "CGACTCCCTTGGGTTCTAACCTGTTGCGT (site CGACTCCCTAC)", "valueObserved": 1.14}
{"sequenceString": "TTCACGGCTTGGGTTCTAACCTGTTGCCT (site TTAACGGCTAG)", "valueObserved": 0.223}
{"sequenceString": "ACGGTCACTTGGGTTCTAACCTGTTGCCG (site ACGGTCACTCG)", "valueObserved": 0.435}
{"sequenceString": "GGGTTGCCTTGGGTTCTAACCTGTTGCCT (site GCGTTGCCTAG)", "valueObserved": 1.1}
{"sequenceString": "ACTGATCCTTGGGTTCTAACCTGTTGCAT (site TTCTTAACTCC)", "valueObserved": 0.00751}
{"sequenceString": "AGCGTTGCTTGGGTTCTAACCTGTTGCCT (site AGCTTTGCTAG)", "valueObserved": 0.16}
{"sequenceString": "TTGAATCCTTGGGTTCTAACCTGTTGCCA (site TTGAGTCCTTA)", "valueObserved": 0.0534}
{"sequenceString": "CACTGATCTTGGGTTCTAACCTGTTGCCT (site CACTGCTCTAG)", "valueObserved": 0.0175}
{"sequenceString": "AAGGCTTCTTGGGTTCTAACCTGTTGCCT (site AAGGCTACTAG)", "valueObserved": 0.171}
{"sequenceString": "AGGTCTGCTTGGGTTCTAACCTGTTGCCT (site AGGTTTGCTAG)", "valueObserved": 0.0282}
{"sequenceString": "TCCGCTCCTTGGGTTCTAACCTGTTGCCT (site TCCGCTTCTAG)", "valueObserved": 0.0907}
{"sequenceString": "CAGCCACCTTGGGTTCTAACCTGTTGCCT (site AAGCCACCTAG)", "valueObserved": 0.0775}
{"sequenceString": "AAACGACCTTGGGTTCTAACCTGTTGCCT (site TAACGACCTAG)", "valueObserved": 0.801}
{"sequenceString": "TCAAACCCTTGGGTTCTAACCTGTTGCGG (site TCCAACCCTCC)", "valueObserved": 0.292}
{"sequenceString": "CTAGTTGCTTGGGTTCTAACCTGTTGCAA (site CTACTTGCTTT)", "valueObserved": 0.229}
{"sequenceString": "AAGCAGTCTTGGGTTCTAACCTGTTGCCT (site AAGCAGTCTAG)", "valueObserved": 2.5}
{"sequenceString": "GAGTACACTTGGGTTCTAACCTGTTGCGC (site GAGTACACTGC)", "valueObserved": 2.53}
{"sequenceString": "GGTCCTACTTGGGTTCTAACCTGTTGCCT (site GCTCCTACTAG)", "valueObserved": 0.0585}
{"sequenceString": "TGAACTACTTGGGTTCTAACCTGTTGCCT (site TGAAATACTAG)", "valueObserved": 0.0445}
{"sequenceString": "TTGAGTCCTTGGGTTCTAACCTGTTGCTA (site TTGAGTCCTTA)", "valueObserved": 0.488}
{"sequenceString": "TGCCGCTCTTGGGTTCTAACCTGTTGCCT (site TGGCGCTCTAG)", "valueObserved": 0.277}
{"sequenceString": "CAATGGTCTTGGGTTCTAACCTGTTGCGT (site CAATGGTCTAC)", "valueObserved": 3.06}
{"sequenceString": "AGAGGTTCTTGGGTTCTAACCTGTTGCCT (site ATAGGTTCTAG)", "valueObserved": 0.271}
{"sequenceString": "GATGTGCCTTGGGTTCTAACCTGTTGCGT (site CCGCGAGCTCG)", "valueObserved": 0.0696}
{"sequenceString": "TTAGGGCCTTGGGTTCTAACCTGTTGCCT (site TTAGGGTCTAG)", "valueObserved": 0.0494}
